Please consider the recorded AC50 for Sodium-dependent noradrenaline transporter (Homo sapiens, UniProt P23975) in what follows.

| compound | assayedSystem | AC50 |
| --- | --- | --- |
| O=C1NCCN1CCN1CCC(c2cn(-c3ccc(F)cc3)c3ccc(Cl)cc23)CC1 | Sodium-dependent noradrenaline transporter (Homo sapiens, UniProt P23975) | 2.7 µM |
| CN[C@@H](C)[C@H](O)c1ccccc1 | Sodium-dependent noradrenaline transporter (Homo sapiens, UniProt P23975) | > 10 µM |
| CN1CCCN=C1COC(=O)C(O)(c1ccccc1)C1CCCCC1 (stereo unspecified) | Sodium-dependent noradrenaline transporter (Homo sapiens, UniProt P23975) | > 30 µM |
| COc1ccc(C(=O)N2CCN(c3ccc4c(c3)CCC(=O)N4)CC2)cc1OC | Sodium-dependent noradrenaline transporter (Homo sapiens, UniProt P23975) | > 30 µM |
| CN1C(=O)CC(c2ccccc2)C1=O (stereo unspecified) [PHENSUXIMIDE] | Sodium-dependent noradrenaline transporter (Homo sapiens, UniProt P23975) | > 10 µM |
| CC(C)NNC(=O)c1ccncc1 | Sodium-dependent noradrenaline transporter (Homo sapiens, UniProt P23975) | > 30 µM |
| CCOC(=O)[C@H](CCc1ccccc1)N[C@H]1CCCN2CCC[C@@H](C(=O)O)N2C1=O | Sodium-dependent noradrenaline transporter (Homo sapiens, UniProt P23975) | > 30 µM |
| [H]/N=C(/N)c1ccc(NCc2nc3cc(C(=O)N(CCC(=O)O)c4ccccn4)ccc3n2C)cc1 | Sodium-dependent noradrenaline transporter (Homo sapiens, UniProt P23975) | > 30 µM |
| C#CCN(C)[C@H](C)Cc1ccccc1 | Sodium-dependent noradrenaline transporter (Homo sapiens, UniProt P23975) | > 10 µM |
| CC(=O)N[C@H]1[C@H]([C@H](O)[C@H](O)CO)OC(C(=O)O)=C[C@@H]1N=C(N)N | Sodium-dependent noradrenaline transporter (Homo sapiens, UniProt P23975) | > 30 µM |

Identify measured AC50 associated with "CCN(CC)CCOC(=O)c1ccc(N)cc1"
> 30 µM

Identify measured AC50 associated with NS(=O)(=O)c1cc(-c2nnn[nH]2)c(NCc2cccs2)cc1Cl [AZOSEMIDE]
> 30 µM

Identify measured AC50 associated with "Oc1ncnc2[nH]ncc12"
> 10 µM

Identify measured AC50 associated with CC(=O)N(CC(O)CO)c1c(I)c(C(=O)NCC(O)CO)c(I)c(C(=O)NCC(O)CO)c1I (stereo unspecified) [IOHEXOL]
> 30 µM

Identify measured AC50 associated with "CC(C)Cc1ccc(CC(=O)O)cc1"
> 30 µM

Identify measured AC50 associated with "CC(C)(C(=O)c1cccnc1)c1cccnc1"
> 10 µM

Identify measured AC50 associated with CCC(C(=O)O)c1ccc(CC(C)C)cc1 (stereo unspecified)
> 30 µM

Identify measured AC50 associated with CN(CCOc1ccc(NS(C)(=O)=O)cc1)CCc1ccc(NS(C)(=O)=O)cc1 [DOFETILIDE]
> 10 µM

Identify measured AC50 associated with C[C@H]1O[C@H](O[C@H]2[C@H](O)[C@@H](O)[C@@H](O[C@H]3[C@H](O)[C@@H](O)C(O)O[C@@H]3CO)O[C@@H]2CO)[C@H](O)[C@@H](O)[C@@H]1N[C@H]1C=C(CO)[C@@H](O)[C@H](O)[C@H]1O (stereo partly specified)
> 30 µM
